Study Target: T1, cynomolgus monkey CD47-Fc (cynomolgus monkey, UniProt Q08722 19-139 (human entry), limits assumed)
T1 construct: also called cCD47; cyno CD47-Fc; not shown: Fc part
T1 chain: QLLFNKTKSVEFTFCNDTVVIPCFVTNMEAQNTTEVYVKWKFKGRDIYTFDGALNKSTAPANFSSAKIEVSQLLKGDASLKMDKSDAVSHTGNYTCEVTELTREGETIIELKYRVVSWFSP
Procedure Summary: direct ELISA, coated cyno CD47-Fc, OD450

# Binder, binding result
rows = [
    ("E-C5, human IgG1null (antibody, V domains shown, IgG1null; also called Clone E-C5) VH: EVQLVQSGAEVKKPGESLKISCKGSGYSFTNYNIHWVRQMPGKGLEWMGTIYPGDSDTSYNPKFQGQVTISADKSISTAYLQWSSLKASDTAMYYCARGGYRAQDYWGQGTLVTVSS VL: DIVMTQSPLSLPVTPGEPASISCRSSQSLLHSNGNTYLGWYLQKPGQSPQLLIYKGSNRFSGVPDRFSGSGSGTDFTLKISRVEAEDVGVYYCMQASHVPYTFGQGTKLEIK", "binds"),
    ("D-C12, human IgG1null (antibody, V domains shown, IgG1null; also called Clone D-C12) VH: EVQLVQSGAEVKKPGESLKISCKGSGYSFTNYNIHWVRQMPGKGLEWMGTIYPGNSDTRYNPKFQGQVTISADKSISTAYLQWSSLKASDTAMYYCARGGFRAMDYWGQGTLVTVSS VL: DIVMTQSPLSLPVTPGEPASISCRSSQSLLHSNGNTYLGWYLQKPGQSPQLLIYKGSNRFSGVPDRFSGSGSGTDFTLKISRVEAEDVGVYYCMQGSHVPYTFGQGTKLEIK", "binds"),
    ("A-H3, human IgG1null (antibody, V domains shown, IgG1null; also called Clone A-H3) VH: EVQLVQSGAEVKKPGESLKISCKGSGYSFTNYNIHWVRQMPGKGLEWMGTIYPGNSDTSYNPSFQGQVTISADKSISTAYLQWSSLKASDTAMYYCARGGVRAMDYWGQGTLVTVSS VL: DIVMTQSPLSLPVTPGEPASISCRSSQSLLHSKGNTYLGWYLQKPGQSPQLLIYKGSNRFSGVPDRFSGSGSGTDFTLKISRVEAEDVGVYYCMQASQVPYTFGQGTKLEIK", "binds"),
]

Reference source for all entries: patent US20260015420A1
